Hey, just so you know, these numbers are from patent US20120207763A1.

target: CDK2/Cyclin-A kinase complex (Homo sapiens, UniProt P24941); assay: CDK2 IMAP fluorescence polarization assay; format: biochemical; settings: Table E; read-out: CDK2cyA IMAP/IC50 [umol l − 1]
This section presents compounds with their documented IC50 values.
OBSERVED_PROPERTY: IC50

* CCC(C(=O)OC)n1ccc2cnc(Nc3ccc(N4CCNCC4)cc3)nc21 (centres unmarked) [Example 221] | < 10 µM
* Cc1c(C(=O)O)n(C2CCCC2)c2nc(Nc3ccc(N4CCNCC4)cn3)ncc12 [Example 444] | > 10 µM
* CC(=O)N1CCN(c2ccc(Nc3ncc4ccn(C5CCC(C)C5)c4n3)cc2)CC1 (centres unmarked) [Example 238] | < 10 µM
* Cc1cn(C2CC2)c2nc(Nc3ccc(N4CCNCC4)cn3)ncc12 [Example 271] | > 10 µM
* Cc1cn(C2CCCC2)c2nc(Nc3ccc(N4CCCCC4)nc3)ncc12 [Example 284] | > 15 µM
* CCC(CC)n1c(C(=O)Nc2cccc(C(C)(C)C)c2)cc2cnc(Nc3ccc(N4CCNCC4)cc3)nc21 [Example 358] | > 15 µM
* CCC(CC)n1c(C(=O)Nc2ccccn2)cc2cnc(Nc3ccc(N4CCNCC4)cc3)nc21 [Example 351] | < 10 µM
* CCC(CC)n1c(C(=O)Nc2ccccc2)cc2cnc(Nc3ccc(N4CCNCC4)cc3)nc21 [Example 345] | < 10 µM
